Reference source: patent US20110190336A1

TARGET_DESC: human DP2 receptor (Homo sapiens)
Sequence (Q9Y5Y4 whole entry): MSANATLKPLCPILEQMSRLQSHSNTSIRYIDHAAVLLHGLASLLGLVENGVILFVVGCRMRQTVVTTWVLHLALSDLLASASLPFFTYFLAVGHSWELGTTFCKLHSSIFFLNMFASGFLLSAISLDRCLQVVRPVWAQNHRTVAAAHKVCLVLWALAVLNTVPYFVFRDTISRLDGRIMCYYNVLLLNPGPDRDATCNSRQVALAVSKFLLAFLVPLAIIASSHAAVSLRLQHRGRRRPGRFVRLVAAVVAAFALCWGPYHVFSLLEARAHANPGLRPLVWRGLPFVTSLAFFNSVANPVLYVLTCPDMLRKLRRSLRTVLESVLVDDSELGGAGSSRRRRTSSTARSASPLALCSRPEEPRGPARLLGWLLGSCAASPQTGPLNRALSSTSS
PROTOCOL_DESCRIPTION: Prostaglandin D2 binding inhibition assay (scintillation proximity assay, 3H PGD2, membranes of transfected CHO cells)
CONDITIONS_USED: SPA, 5.5 nM 3H PGD2, CHO-K1 FLP-In human DP2 membranes; upper limit determinable 30 μM; read-out: IC50 ranges for inhibition of PGD2 binding to human DP2
Method: The ability of compounds to inhibit binding of prostaglandin D2 (PGD2) to the human DP2 receptor was measured using a scintillation proximity assay (SPA). Chinese Hamster Ovary FLP-In cell lines (CHO-K1 FLP-In, Invitrogen, catalog no. R758-07) were stably transfected with the human DP2 gene (Genebank: AY507142). […] Membranes from transfected cells were isolated for binding assays. […] Data were expressed as a percent of the difference between the maximum and minimum responses. […]
VALUE_KIND: IC50

In [3]: df
Out[3]:
                           structure_smiles      result
0  O=C(O)Cn1c(=O)n(C2CCN(S(=O)(=O)c3cccc(OC(F)(F)F)c3)CC2)c2ncccc21  1 to 10 µM
1  O=C(O)Cn1c(=O)n([C@H]2CCCN(S(=O)(=O)c3ccc(Cl)cc3Cl)C2)c2ncccc21  1 to 10 µM
2  Cc1ccnc2c1n(CC(=O)O)c(=O)n2C1CCN(S(=O)(=O)c2ccccc2Cl)CC1     > 30 µM
3  O=C(O)Cn1c(=O)n(C2CCN(S(=O)(=O)c3cccc(C(F)(F)F)c3)CC2)c2ncccc21  1 to 10 µM

###

TARGET_DESC: human DP2 receptor (Homo sapiens)
PROTOCOL_DESCRIPTION: Prostaglandin D2 binding inhibition assay (scintillation proximity assay, 3H PGD2, membranes of transfected CHO cells)
CONDITIONS_USED: SPA, 5.5 nM 3H PGD2, CHO-K1 FLP-In human DP2 membranes; upper limit determinable 30 μM; read-out: IC50 ranges for inhibition of PGD2 binding to human DP2
compounds and their reported IC50
VALUE_KIND: IC50

>>> print(df.to_string())
                                    compound       result
 0  Cc1ccc(S(=O)(=O)N2CC[C@@H](n3c(=O)n(CC(=O)O)c4cccnc43)C2)c(F)c1       < 1 µM
 1  O=C(O)Cn1c(=O)n(C2CCN(S(=O)(=O)c3ccc(F)cc3F)CC2)c2ncccc21       < 1 µM
 2  O=C(O)Cn1c(=O)n(C2CCN(S(=O)(=O)c3cc(F)c(F)cc3F)CC2)c2ncccc21   1 to 10 µM
 3  O=C(O)Cn1c(=O)n(C2CCN(S(=O)(=O)c3ccc(Cl)cc3)CC2)c2ncccc21   1 to 10 µM
 4  O=C(O)Cn1c(=O)n([C@@H]2CCN(S(=O)(=O)c3ccc(F)cc3Cl)C2)c2ncccc21       < 1 µM
 5  Cc1ccccc1S(=O)(=O)N1CCC(n2c(=O)n(CC(=O)O)c3cccnc32)CC1       < 1 µM
 6  O=C(O)Cn1c(=O)n(C2CCN(S(=O)(=O)c3ccccc3)CC2)c2ncccc21   1 to 10 µM
 7  CC(C)S(=O)(=O)N1CCC(n2c(=O)n(CC(=O)O)c3cccnc32)CC1   1 to 10 µM
 8  Cc1cc(S(=O)(=O)N2CCC(n3c(=O)n(CC(=O)O)c4cccnc43)CC2)c(C)s1   1 to 10 µM
 9  O=C(O)Cn1c(=O)n(C2CCN(S(=O)(=O)c3cccc4ccccc34)CC2)c2ncccc21   1 to 10 µM
10  N#Cc1ccccc1S(=O)(=O)N1CCC(n2c(=O)n(CC(=O)O)c3cccnc32)CC1       < 1 µM
11  Cc1cnc2c(c1)n(CC(=O)O)c(=O)n2C1CCN(S(=O)(=O)c2ccc(F)cc2Cl)CC1  10 to 30 µM
12  Cc1ccc(S(=O)(=O)N2CCC[C@@H](n3c(=O)n(CC(=O)O)c4cccnc43)C2)c(F)c1       < 1 µM
13  Cc1ccc(S(=O)(=O)N2CCC(n3c(=O)n(CC(=O)O)c4cccnc43)CC2)cc1   1 to 10 µM
14  CCCCOc1ccc(S(=O)(=O)N2CCC(n3c(=O)n(CC(=O)O)c4cccnc43)CC2)cc1       < 1 µM
15  CS(=O)(=O)c1ccccc1S(=O)(=O)N1CCC(n2c(=O)n(CC(=O)O)c3ncccc32)CC1      > 30 µM
16  CS(=O)(=O)c1ccccc1S(=O)(=O)N1CCC(n2c(=O)n(CC(=O)O)c3cc(F)cnc32)CC1       < 1 µM
17  CS(=O)(=O)c1ccccc1S(=O)(=O)N1CC[C@@H](n2c(=O)n(CC(=O)O)c3cccnc32)C1       < 1 µM
18  O=C(O)Cn1c(=O)n(C2CCN(S(=O)(=O)c3cc(F)c(Br)cc3F)CC2)c2ncccc21       < 1 µM
19  Cc1ccnc2c1n(CC(=O)O)c(=O)n2C1CCN(S(=O)(=O)c2ccc(Cl)cc2Cl)CC1      > 30 µM
20  O=C(O)Cn1c(=O)n(C2CCN(S(=O)(=O)c3ccc4ccccc4c3)CC2)c2ncccc21   1 to 10 µM
21  Cc1ccnc2c1n(CC(=O)O)c(=O)n2C1CCN(S(=O)(=O)c2ccc(F)cc2Cl)CC1      > 30 µM
22  O=C(O)Cn1c(=O)n(C2CCN(S(=O)(=O)c3ccc(F)cc3)CC2)c2ncccc21   1 to 10 µM
23  O=C(O)Cn1c(=O)n(C2CCN(S(=O)(=O)c3cc(Cl)ccc3Cl)CC2)c2ncccc21       < 1 µM
24  O=C(O)Cn1c(=O)n(C2CCN(S(=O)(=O)c3ccccc3OC(F)(F)F)CC2)c2ncccc21   1 to 10 µM
25  O=C(O)Cn1c(=O)n(C2CCN(S(=O)(=O)c3ccc(F)cc3Cl)CC2)c2ccncc21      > 30 µM
26  O=C(O)Cn1c(=O)n(C2CCC(NS(=O)(=O)c3ccc(F)cc3Cl)CC2)c2ncccc21 (stereo not shown)   1 to 10 µM
27  O=C(O)Cn1c(=O)n(C2CCN(S(=O)(=O)c3cc(F)c(Cl)cc3F)CC2)c2ncccc21       < 1 µM
28  CS(=O)(=O)c1ccccc1S(=O)(=O)N1CCC(n2c(=O)n(CC(=O)O)c3ccncc32)CC1   1 to 10 µM
29  O=C(O)Cn1c(=O)n(C2CCN(S(=O)(=O)c3ccc(Br)cc3F)CC2)c2ncccc21       < 1 µM
30  CS(=O)(=O)c1cccc(S(=O)(=O)N2CCC(n3c(=O)n(CC(=O)O)c4cccnc43)CC2)c1   1 to 10 µM
